Recorded values, source patent US7256203B2.

- System: Plasmodium falciparum
- assayText: In vitro anti-protozoan data, P. f.
- Format: cell-based
- conditions: Plasmodium falciparum; in vitro; read-out: IC-50 values versus Plasmodium falciparum (p.f.)
readoutName: IC50

molecule	result
N=C(NO)c1ccc(-c2ccc(-c3ccc(C(=N)NO)cn3)o2)cc1 [Compound 4]	< 10 nM
CONC(=N)c1ccc(-c2ccc(-c3ccc(C(=N)NOC)cn3)o2)cc1 [Compound 5]	< 10 nM
CONC(=N)c1ccc(-c2ccc(-c3ccc(C(=N)NOC)cn3)o2)nc1 [Compound 27]	< 10 nM

====

- Tested on: Leishmania donovani
- assayText: In vitro anti-protozoan data, L. d.
- Type: cell-based
- conditions: Leishmania donovani
In this section we review reported IC50 values for a set of compounds.
readoutName: IC50

1) N=C(NO)c1ccc(-c2ccc(-c3ccc(C(=N)NO)cn3)s2)cc1 > 187 µM
2) CONC(=N)c1ccc(-c2ccc(-c3ccc(C(=N)NOC)cn3)o2)nc1 > 166 µM
3) CONC(=N)c1ccc(-c2ccc(-c3ccc(C(=N)NOC)cn3)o2)cc1 113 µM
4) N=C(NO)c1ccc(-c2ccc(-c3ccc(C(=N)NO)cn3)o2)nc1 77 µM
5) N=C(N)c1ccc(-c2ccc(-c3ccc(C(=N)N)cn3)o2)cc1 101 µM
6) N=C(NO)c1ccc(-c2ccc(-c3ccc(C(=N)NO)cn3)o2)cc1 > 195 µM
